Target: Cholecystokinin receptor type A (Homo sapiens, UniProt P32238)
Sequence (P32238 whole entry): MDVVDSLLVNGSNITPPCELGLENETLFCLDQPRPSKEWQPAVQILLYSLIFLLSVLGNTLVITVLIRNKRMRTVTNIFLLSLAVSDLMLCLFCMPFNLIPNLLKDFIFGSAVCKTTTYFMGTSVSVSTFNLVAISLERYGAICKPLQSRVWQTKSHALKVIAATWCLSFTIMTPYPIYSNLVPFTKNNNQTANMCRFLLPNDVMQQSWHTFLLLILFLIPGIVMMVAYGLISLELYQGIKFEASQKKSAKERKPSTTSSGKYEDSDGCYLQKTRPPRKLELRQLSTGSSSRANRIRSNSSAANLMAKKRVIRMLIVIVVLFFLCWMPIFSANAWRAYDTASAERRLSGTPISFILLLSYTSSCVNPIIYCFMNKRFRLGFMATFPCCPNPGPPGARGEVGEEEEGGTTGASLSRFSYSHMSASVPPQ
pKd: −log10 of the molar value.
Value type: pKd

[
  {
    "Structure string": "CN1C(=O)[C@@H](NC(=O)Nc2cccc([125I])c2)N=C(c2ccccc2)c2ccccc21",
    "Observed measurement": 8.94
  }
]

---

Consider compounds characterized by their Ki with Cholecystokinin receptor type A (Homo sapiens, UniProt P32238).
Value type: Ki

[
  {
    "Structure string": "CN1C(=O)[C@@H](NC(=O)Nc2cccc([125I])c2)N=C(c2ccccc2)c2ccccc21",
    "Study target": "Cholecystokinin receptor type A (Homo sapiens, UniProt P32238)",
    "Observed measurement": "0.174 µM"
  },
  {
    "Structure string": "CN1C(=O)[C@H](NC(=O)Nc2cccc([125I])c2)N=C(c2ccccc2)c2ccccc21",
    "Study target": "Cholecystokinin receptor type A (Homo sapiens, UniProt P32238)",
    "Observed measurement": "0.00372 µM"
  }
]

---

Target: Gastrin/cholecystokinin type B receptor (Homo sapiens, UniProt P32239)
Sequence (P32239 whole entry): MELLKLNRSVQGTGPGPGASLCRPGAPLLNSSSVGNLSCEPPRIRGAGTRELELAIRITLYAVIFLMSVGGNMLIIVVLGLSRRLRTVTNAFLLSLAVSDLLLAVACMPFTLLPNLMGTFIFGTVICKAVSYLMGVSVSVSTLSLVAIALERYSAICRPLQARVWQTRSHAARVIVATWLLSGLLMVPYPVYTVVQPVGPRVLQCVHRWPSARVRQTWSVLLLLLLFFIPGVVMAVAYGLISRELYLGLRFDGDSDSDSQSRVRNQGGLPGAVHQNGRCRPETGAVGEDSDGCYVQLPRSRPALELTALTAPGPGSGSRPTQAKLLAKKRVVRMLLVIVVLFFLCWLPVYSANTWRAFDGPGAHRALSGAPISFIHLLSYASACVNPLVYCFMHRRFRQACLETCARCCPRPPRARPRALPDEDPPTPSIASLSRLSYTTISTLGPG
pKi: −log10 of the molar value.
Measured pKi values are reported for all entries that follow.

[
  {
    "Structure string": "CN1C(=O)[C@@H](NC(=O)Nc2cccc([125I])c2)N=C(c2ccccc2)c2ccccc21",
    "pKi": 9.00
  },
  {
    "Structure string": "CN1C(=O)[C@H](NC(=O)Nc2cccc([125I])c2)N=C(c2ccccc2)c2ccccc21",
    "pKi": 6.27
  }
]
